# target or system: Aspartate--tRNA(Asp/Asn) ligase (Mycobacterium tuberculosis (strain ATCC 25618 / H37Rv)); further: in the data most compounds retested in dose-response had high values
# assay summary: Assay for Asp RNA synthetase-1 from Mycobacterium tuberculosis
# Format: functional
# Set-up: scale not given: direction of the effect not stated beside the values
# study conditions: 30 µM
For each entry below, report its Percent Effect value.

molecule	Percent Effect
CCO[C@H]1CO[C@@]2(CCCN(Cc3nc(C)cs3)C2)C1	-4.51%

Okay, here is my list. What is Percent Effect for each of these?
1. CC(C)(C)c1nc(CN2CCCC2CCc2ccccc2)no1 (stereo not given)
2. Cc1ccc(N2CC[C@H]3OCC[C@@]3(C(=O)NC(C)C)C2)nn1
3. Cc1cnc(N2CCC3(CCN(CC4CC4)C3=O)CC2)nc1
4. N#Cc1ccccc1OCCN1CCn2c(nnc2C2CC2)C1
5. CN(C)CCN(Cc1ccc(Cl)cc1)C(=O)c1cc[nH]n1

1. 2.52%
2. -2.66%
3. -3.05%
4. -1.13%
5. -3.79%

###

# target or system: Shiga toxin 2 (Escherichia coli O157:H7) (UniProt P09385+P09386)
# assay summary: E. coli 0.157:H7 Shiga Toxin SOP - stx2 screening assay
# Type: functional
# Set-up: scale not given: direction of the effect not stated beside the values
# study conditions: 30 µM
For each entry below, report its Percent Effect value.
One number for each entry, in %.

Worked cases, Percent Effect given:
compound	value reported
O=C(CC1CC1)N1CCC2(CC1)CN(c1ncccn1)CCO2	5.46
CC(C)(C)c1nnc(CN2CCn3c(nnc3C3CC3)C2)o1	-5.14
CC(C)c1ccc(C(C)NC(=O)N2CCC(n3cncn3)CC2)cc1 (stereo not given)	3.93
CN(CC(=O)Nc1ccc(Br)cn1)C(=O)Cc1ccc(O)cc1	17.8

Okay, here is my list. What is Percent Effect for each of these?
1. Cc1cncc(C(=O)N2CCCCC2c2nc(C)cs2)c1 (stereo not given)
2. O=C(CCc1ccccn1)N1CCN(C(=O)CC2CCCCC2)CC1
3. Cc1nc(COCc2cnc3n2CCN(CC2CCC2)C3C)cs1 (stereo not given)
4. O=C(NCCNc1ncccn1)C1CCN(c2ncccn2)CC1
5. O=C(NCc1cc[nH]n1)NCC(c1ccco1)N1CCCC1 (stereo not given)
6. Cc1noc(C)c1-c1cccc(CC2CCN(C(=O)CCC(=O)O)C2)n1 (stereo not given)
7. O=C(NC1CC1)[C@H]1C[C@@H]2CCN(CCc3ccccc3)C[C@H]2O1

1: -42.4; 2: 3.5; 3: -3.62; 4: 5.72; 5: 4.49; 6: -17.7; 7: -10.6

Okay, here is my list. What is Percent Effect for each of these?
1. Cc1cnn(CCC(=O)N2CCCN(c3cccnn3)CC2)c1
2. CC(C)CC1SCC(=O)Nc2c1cnn2-c1ccc(F)cc1 (stereo not given)
3. CN(Cc1ccccc1O)C(=O)NC1CCCN(c2ncccn2)C1 (stereo not given)
4. Cc1noc([C@@H]2C[C@H]3OCC[C@H]3N(S(C)(=O)=O)C2)n1
5. COCC1CC2(CCN(C(=O)c3occc3C)CC2)CO1 (stereo not given)

-11.6
0.343
34
-25.2
-0.429

Okay, here is my list. What is Percent Effect for each of these?
1. CN(c1ccc(C(=O)NCCCN2CCOCC2)c(Cl)c1)S(C)(=O)=O
2. COCCN1C[C@@H]2[C@@H](OC)CCN(Cc3cccc(C)n3)[C@@H]2C1
3. O=C(c1ccc[nH]1)N1C[C@H]2CC[C@@H]1CN(C1Cc3ccccc3C1)C2
4. Cc1ccc(C(=O)Nc2cc(C(C)C)n[nH]2)cn1

-32.5
-22.1
10.5
1.39

Okay, here is my list. What is Percent Effect for each of these?
1. COCC1COCCC12CCN(C(=O)CCc1ccccc1)CC2 (stereo not given)
2. O=C(NCc1cccnc1)C1CC(=O)N(CC2CC2)C1 (stereo not given)
3. CCCOCC(=O)NC1CCc2nc(C)cn2C1 (stereo not given)
4. COc1ccc(C(=O)NCCCn2ccnc2)c(OC)n1
5. COc1cccc(CNc2nc(O)cc(C3CC(=O)N(C)C3)n2)c1 (stereo not given)
6. Fc1ccc(-c2nnc(CN3CCn4c(nnc4C4CC4)C3)o2)cc1
7. Cc1ccsc1CN(C)C(=O)Cn1nc(-c2ccc(F)cc2)oc1=O
8. CN(Cc1ccc(F)cc1)C(=O)NCc1nnc2n1CCCCC2

1. -14.9
2. -8.28
3. 7.61
4. -22.8
5. 12.2
6. -26.1
7. -7.45
8. -16.9

Okay, here is my list. What is Percent Effect for each of these?
1. O=C(c1ccc[nH]1)N1CCC2(CC1)C(=O)Nc1ccccc12
2. Cc1nc(-c2ccsc2)ccc1C(=O)NCCC1CCCO1 (stereo not given)

1. 16.7
2. -18.3
